# target_desc: wtKRAS/RAF1 (Homo sapiens, UniProt P01116)
# Construct: KRAS (1-169) proteins were expressed in E. coli at 18° C; His6-MBP (N, cleaved yes)
# Sequence (P01116 1-169 isoform P01116-2): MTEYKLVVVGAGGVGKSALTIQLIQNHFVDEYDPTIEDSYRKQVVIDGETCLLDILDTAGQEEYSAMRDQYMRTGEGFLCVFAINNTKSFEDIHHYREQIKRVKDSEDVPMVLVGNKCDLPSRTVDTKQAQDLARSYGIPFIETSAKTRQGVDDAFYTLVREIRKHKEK
# assay_explanation: Protein-protein interaction (PPI) HTRF assay w.t.KRAS/RAF1
measure_name: IC50

[[record]]
molecule = "C#Cc1c(C(=O)N(C)C)nn2c1CN(c1nc(OC[C@@]34CCCN3C[C@H](F)C4)nc3c1CN(C)[C@@]1(CCCc4ccccc41)C3)CCC2"
measure_name = "IC50"
val = "10 to 100 µM"


Briefly, IC50 measured for CN(C)C(=O)c1nn2c(c1Cl)CN(c1nc(OC[C@@]34CCCN3C[C@H](F)C4)nc3c1CN(C)[C@@]1(CCc4cccc(O)c41)C3)CCC2 : > 100 µM

Briefly, IC50 measured for O=C1NC(=O)C2(CCCN(c3nc(OC[C@@]45CCCN4C[C@H](F)C5)nc4c3COC3(CCc5c(Cl)cccc53)C4)C2)N1 (stereo partly drawn) : 10 to 100 µM

---

# target_desc: KRAS G12D/RAF1 (Homo sapiens, UniProt P01116, G12D)
# Construct: KRAS (1-169) proteins were expressed in E. coli at 18° C; His6-MBP (N, cleaved yes)
# Sequence (P01116 1-169 isoform P01116-2 G12D): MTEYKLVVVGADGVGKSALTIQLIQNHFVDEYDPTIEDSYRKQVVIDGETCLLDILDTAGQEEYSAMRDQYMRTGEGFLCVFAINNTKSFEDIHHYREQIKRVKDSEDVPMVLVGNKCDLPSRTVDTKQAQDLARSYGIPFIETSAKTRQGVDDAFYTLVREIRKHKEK
# assay_explanation: Protein-protein interaction (PPI) HTRF assay KRAS G12D/RAF1
# cond: KRAS G12D/RAF1, GppNHp-loaded KRAS; 30 minutes pre-incubation
measure_name: IC50

[[record]]
molecule = "O=C1NC(=O)C2(CCCN(c3nc(OC[C@@]45CCCN4C[C@H](F)C5)nc4c3COC3(CCc5c(Cl)cccc53)C4)C2)N1 (stereo partly drawn) [Compound 24]"
measure_name = "IC50"
val = "10 to 100 µM"

[[record]]
molecule = "CN(C)C(=O)c1nn2c(c1Cl)CN(c1nc(OC[C@@]34CCCN3C[C@H](F)C4)nc3c1CO[C@@]1(CCc4c(Cl)cccc41)C3)CCC2"
measure_name = "IC50"
val = "10 to 100 µM"


Briefly, IC50 measured for CONC(=O)c1cc2n(n1)CCCN(c1nc(OC[C@@]34CCCN3C[C@H](F)C4)nc3c1CO[C@@]1(CCc4c(Cl)cccc41)C3)C2 : > 100 µM

---

# target_desc: KRAS G12D/RAF1 (Homo sapiens, UniProt P01116, G12D)
# Construct: KRAS (1-169) proteins were expressed in E. coli at 18° C; His6-MBP (N, cleaved yes)
# assay_explanation: Protein-protein interaction (PPI) HTRF assay KRAS G12D/RAF1
# cond: KRAS G12D/RAF1, GppNHp-loaded KRAS; 30 minutes pre-incubation
Overview of recorded IC50 for various compounds

[[record]]
substance_smiles = "CN1Cc2c(nc(OC[C@@]34CCCN3C[C@H](F)C4)nc2N2CCCn3nc(-c4ccccn4)c(Cl)c3C2)C[C@]12CCCc1ccccc12"
val = "10 to 100 µM"

[[record]]
substance_smiles = "Cc1noc(-c2cc3n(n2)CCCN(c2nc(OC[C@@]45CCCN4C[C@H](F)C5)nc4c2CN(C)[C@@]2(CCc5cccc(F)c52)C4)C3)n1"
val = "> 100 µM"


Briefly, IC50 measured for CN(C)C(=O)c1nn2c(c1Cl)CN(c1nc(OC[C@@]34CCCN3C[C@H](F)C4)nc3c1CN(C)[C@@]1(CCc4c(F)cccc41)C3)CCC2 : 10 to 100 µM

The reported measurements were obtained from patent US11912723B2.
